Assay: gradient 5% acetonitrile 3 min, to 50% in 2 min, to 85% in 15 min, held 3 min, 100 µL/min
Conditions: column: Zorbax Extend-C18 2.1 x 50 mm; eluents: water / acetonitrile, 0.1% formic acid
endpoint: RP-LC retention time (s)

These solved cases illustrate the format of a correct answer.
INSERT INTO assay_data (compound, endpointunit, recordedvalue) VALUES
  ('O=C(Cn1c(=O)oc2ccccc21)N1CCC(c2noc(-c3cccnc3)n2)C1 (centres undefined)', 's', 702),
  ('O=C(c1cc(Cl)ccc1F)N1CCN(c2cc(-c3cccs3)[nH]n2)CC1', 's', 833);

P: CC(C)c1cc(=O)n(CC(=O)Nc2cccc(-c3cn4c(n3)SCC4)c2)cn1
Q: CCOC(=O)c1nc(NCCc2ccc(OCC)cc2)c2ccccc2n1
Looking only at measured RP-LC retention time, which entry is lower, P or Q ? Provide the label of your selected option as the answer. P
